Below: a set of entries, each annotated with reported Top (RLU).
Biological target: T1, TIGIT on TIGIT-over expressing NFAT-Luc/Jurkat effector cells (GenScript reporter cell line) (UniProt Q495A1 22-244, limits assumed)
T1 sequence (looked up): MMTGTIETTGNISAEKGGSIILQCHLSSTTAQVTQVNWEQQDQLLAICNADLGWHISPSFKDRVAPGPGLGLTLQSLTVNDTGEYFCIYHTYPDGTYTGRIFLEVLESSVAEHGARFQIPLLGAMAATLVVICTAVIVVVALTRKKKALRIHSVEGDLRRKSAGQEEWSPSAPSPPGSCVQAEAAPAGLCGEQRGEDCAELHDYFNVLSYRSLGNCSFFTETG
Assay: cell-based or functional assay
Kindly answer with a numeric value in RLU, unit omitted.

Lab book: Top (RLU) of TIGIT-15 chimeric antibody (antibody, human IgG1, kappa, V domains shown, Full-length chimeric IgG1 kappa) VH: DVQLVESGGGLVQPGGSLKLSCAASGFTFSSYGMSWVRQTPDRRLELVATINNNGGSTYYPDSVKGRFTISRDNARNTLYLQMSSLKSEDTAMYYCATRTGTEILGFDFWGQGTTLTVSS VL: DIVLTQSHKFMSTSLGDRVSITCKASQDVSTAVAWYQQKPGQSPKLLIYWASSRHTGVPDRFTGSRSGPDYTLTISSVQAEDLALYYCQQQYSTPWTFGGGTKLEIKR noted as 51900

Ref: patent US20260139048A1
